Every entry's value here was drawn from the supplement of paper PMC6755084.

B1: F1*; the commonest letter at each place (parent)
chain: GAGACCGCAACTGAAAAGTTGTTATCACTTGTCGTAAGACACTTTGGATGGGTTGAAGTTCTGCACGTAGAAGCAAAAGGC

Variants of: B1
experiment notes: fraction ligated after 30 min (ligated reads / total reads); higher = more ligase activity
measurement setup: with F1*sub RNA substrate (template-directed ligation), 42 °C
quantity measured: fraction ligated
When you answer, write just the number.

Memo: GAGACCGCAACTGAAAAGTTGTTATCACTAGTCGTAAGACACTTTGGATTGGTTGAAGTTCTGCACGTAGAAGCAAAAGGC [T30A G50T] , reported fraction ligated: 0.57

Memo: GAGACCGCAACTGAAAAGTTGTTATCACTTGTCGTAAGACAGTTTGGATGGGTTGCAGTTCTGCACGTAGAAGCAAAAGGC [C42G A56C] , reported fraction ligated: 0.801

Memo: GAGACCGCAACTGAAAAGTTGTTATCACTTGTTGTAAGACACTTTTGATGGGTTGAAGTTCTGCACGTAGAAGCAAAAGGC [C33T G46T] , reported fraction ligated: 0.791

Memo: GAGACCGCAACTGAAAAGTTGTTATCAATTGCCGTAAGACACTTTGGATGGGTTGAAGTTCTGCACGTAGAAGCAAAAGGC [C28A T32C] , reported fraction ligated: 0.756

Memo: GAGACCGCAACTGAAAAGTTGTTATCACTTGTCGTAAGACACTTTCGAAGGGTTGAAGTTCTGCACGTAGAAGCAAAAGGC [G46C T49A] , reported fraction ligated: 0.344

Memo: GAGACCGCAACTGAAAAGTTGTTATCACTTGTCGTAAGACTCTTTGGATCGGTTGAAGTTCTGCACGTAGAAGCAAAAGGC [A41T G50C] , reported fraction ligated: 0.268

Memo: GAGACCGCAACTGAAAAGTTGTTATCATTTGTCGTAAGACACTTGGGATGGGTTGAAGTTCTGCACGTAGAAGCAAAAGGC [C28T T45G] , reported fraction ligated: 0.0616

Memo: GAGACCGCAACTGAAAAGTTGTTATGACTTCTCGTAAGACACTTTGGATGGGTTGAAGTTCTGCACGTAGAAGCAAAAGGC [C26G G31C] , reported fraction ligated: 0.176

Memo: GAGACCGCAACTGAAAAGTTGTTATCACTTGTCGTAAGACACTTTGGTTGGGTTGCAGTTCTGCACGTAGAAGCAAAAGGC [A48T A56C] , reported fraction ligated: 0.0454

Memo: GAGACCGCAACTGAAAAGTTGTTATCACATGTCGTAAGTCACTTTGGATGGGTTGAAGTTCTGCACGTAGAAGCAAAAGGC [T29A A39T] , reported fraction ligated: 0.831

Memo: GAGACCGCAACTGAAAAGTTGTTATCACTTGTCGTAAGACGCTTTGGATGGGTTTAAGTTCTGCACGTAGAAGCAAAAGGC [A41G G55T] , reported fraction ligated: 0.754
